# measurement_description: solvent given as SMILES
# conditions: in CO
Binning scheme for emission maximum: low (below 400 nm), intermediate (400 nm to below 500 nm), high (500 nm or more)

smiles_notation	category_label
Nc1ccc2cc(-c3ccc(C(F)(F)F)cc3)oc(=O)c2c1	intermediate
O=C(O)CC[N+]1=c2cc3c(cc2CCC1)=Cc1c(c2cc4c5c(c2oc1=O)CCCN5CCC4)O3	high
N#CC(C#N)=Cc1cn(-c2ccccc2)nc1-c1ccccc1	intermediate
CC(=O)c1ccc2ccc3c(NCCC(=O)NCCCCCCc4nc5c(=O)[nH]c(N)nc5n4[C@H]4C[C@H](O)[C@@H](CO)O4)ccc4ccc1c2c43	high
Cc1ccc2ccc3cccc4ccc1c2c34	low
Cc1cc2ccc(-c3cccc4cccc(-c5ccc6cc(C)c(=O)oc6c5)c34)cc2oc1=O	intermediate
Oc1cccc(/N=C/c2ccccc2Oc2ccccc2)c1	low
Cc1ccc(C2=C3C=C(I)C=[N+]3[B-](F)(F)n3c2cc(I)c3I)cc1	high

====

Listing of entries alongside the reported emission maximum.
# measurement_description: solvent given as SMILES
# conditions: in CCCCCCCCCCCCCCCC

compound	emission maximum, nm
Oc1ccccc1/C=N/N=C/c1ccccc1O	581.4
CC(C)(C)C1Nc2ccccc2C(=O)N1c1ccccc1 (centres undefined)	388
O=C1c2ccccc2NCN1Cc1ccccc1	381
COC(=O)c1ccc(C#Cc2ccc(N(C)C)cc2)cc1	370

====

# measurement_description: solvent given as SMILES
# conditions: in c1ccccc1
Returns one of 1 (yes) or 0 (no); 1 (yes) when emission maximum is >= 500 nm.

compound	category_label
Oc1cccc(/N=C/c2ccccc2Oc2ccccc2)c1	0 (no)
CC1(C)CCc2c(c3ccccc3c3nc4c(nc23)c2c(c3ccccc34)OC(C)(C)CC2)O1	0 (no)
Nc1cccc2c1-c1ccccc1C2=O	1 (yes)
Nc1ccc2nc(-c3ccccc3)c(=O)oc2c1	0 (no)
Cc1ccc(-c2ccc(/C=C/c3cccn3C)cn2)nc1	0 (no)
Cc1c2oc3c(C)c(N)cc(C(=O)NC4OC(=O)C(C(C)C)N(C)C(=O)CN(C)C(=O)C5CCCN5C(=O)C(C(C)C)NC4=O)c3nc-2c(C(=O)NC2OC(=O)C(C(C)C)N(C)C(=O)CN(C)C(=O)C3CCCN3C(=O)C(C(C)C)NC2=O)c(N)c1=O (centres undefined)	1 (yes)
CNc1cccc2c1C(=O)c1ccccc1-2	1 (yes)

====

Overview of recorded emission maximum for various compounds
# measurement_description: solvent given as SMILES
# conditions: in CO

compound	scale_unit	emission maximum
Cc1ccc2cc3c(=O)n(C)c(=O)n(C)c3nc2c1	nm	409
CCC1=C(C)C(=O)n2c1cc1c(CCC(=O)O)c(C)c(C)n1c2=O	nm	540
COC(=O)C(NC(=O)OC(C)(C)C)c1ccc2oc(-c3cc(OC)ccc3OC)nc2c1 (stereo unspecified)	nm	405
c1ccc2c(c1)CCc1ccccc1N2	nm	359
Cc1nc2c(ccc3c2sc(/C=C/c2ccc(N(C)C)cc2)[n+]3C)s1	nm	600
NS(=O)(=O)c1ccc(N2N=C(c3ccc(O)cc3)CC2c2ccc(Cl)cc2)cc1 (stereo unspecified)	nm	431
CCN1\C(=C/C=C/C=C/C2=[N+](CC)c3ccc4cc(Br)ccc4c3C2(C)C)C(C)(C)c2c1ccc1cc(Br)ccc21	nm	702
CN(C)CCCN1c2ccccc2Sc2ccc(C(F)(F)F)cc21	nm	463
CN(C)c1ccc2nc(-c3ccccc3)sc2c1Cl	nm	472
N#CC(C#N)=C(/C=C/c1cc2c3c(c1)CCCN3CCC2)c1ccc2c3c(cccc13)CC2	nm	613
C(#Cc1ccccc1)c1ccccc1	nm	307
